Where do the numbers come from? From ChEMBL document CHEMBL1143183.

assay: Inhibition of beta amyloid 25-35 fibril formation at 10 uM
Answer not fulfilled if inhibition is under 30%, and fulfilled if it is 30% or more.

{"TEST SMILES": "COc1cc(-c2[o+]c3cc(O)cc(O)c3cc2O)cc(OC)c1O", "LABEL": "fulfilled"}
{"TEST SMILES": "Oc1cc(O)c2c(c1)O[C@H](c1cc(O)c(O)c(O)c1)[C@H](O)C2", "LABEL": "not fulfilled"}
{"TEST SMILES": "OC[C@H]1O[C@@H](Oc2cc3c(O)cc(O)cc3[o+]c2-c2ccc(O)c(O)c2)[C@H](O)[C@@H](O)[C@@H]1O", "LABEL": "fulfilled"}
{"TEST SMILES": "O=C(O[C@@H]1Cc2c(O)cc(O)cc2O[C@@H]1c1cc(O)c(O)c(O)c1)c1cc(O)c(O)c(O)c1", "LABEL": "not fulfilled"}
{"TEST SMILES": "COc1cccc(OC)c1C(=O)OCc1cc(O)ccc1O[C@@H]1O[C@H](CO)[C@@H](O)[C@H](O)[C@H]1O", "LABEL": "not fulfilled"}

* * *

experiment: Inhibition of beta amyloid 25-35 fibril formation at 10 uM
inhibition reference
METRIC NAME: inhibition (%)

{"COMPOUND": "O=C(O[C@@H]1Cc2c(O)cc(O)cc2O[C@@H]1c1ccc(O)c(O)c1)c1cc(O)c(O)c(O)c1", "UNIT TAG": "%", "NUMBER": 13}
{"COMPOUND": "COc1cc(/C=C/C(=O)CC(=O)/C=C/c2ccc(O)c(OC)c2)ccc1O", "UNIT TAG": "%", "NUMBER": 45}
{"COMPOUND": "O=C(O)/C=C/c1ccc(O)cc1", "UNIT TAG": "%", "NUMBER": 17}
{"COMPOUND": "COc1ccc(O)c(OC)c1C(=O)OCc1ccccc1O[C@@H]1O[C@H](CO)[C@@H](O)[C@H](O)[C@H]1O [CURCULIGOSIDE D]", "UNIT TAG": "%", "NUMBER": 49}
{"COMPOUND": "Oc1cc(O)c2cc(O)c(-c3ccc(O)c(O)c3)[o+]c2c1", "UNIT TAG": "%", "NUMBER": 35}
{"COMPOUND": "COc1cc(-c2[o+]c3cc(O)cc(O)c3cc2O[C@@H]2O[C@H](CO)[C@@H](O)[C@H](O)[C@H]2O)cc(OC)c1O", "UNIT TAG": "%", "NUMBER": 44}
{"COMPOUND": "Oc1ccc(/C=C/c2cc(O)cc(O)c2)cc1", "UNIT TAG": "%", "NUMBER": 63}
{"COMPOUND": "Oc1cc(O)c2cc(O)c(-c3cc(O)c(O)c(O)c3)[o+]c2c1", "UNIT TAG": "%", "NUMBER": 26}
{"COMPOUND": "COc1cc(/C=C/c2ccc(O)cc2)cc(OC)c1", "UNIT TAG": "%", "NUMBER": 35}
{"COMPOUND": "O=C(O)/C=C/c1ccc(O)c(O)c1", "UNIT TAG": "%", "NUMBER": 15}
{"COMPOUND": "O=C(O)c1ccc(O)cc1", "UNIT TAG": "%", "NUMBER": 29}
{"COMPOUND": "COc1cccc(O)c1C(=O)OCc1cc(O)ccc1O[C@@H]1O[C@H](CO)[C@@H](O)[C@H](O)[C@H]1O [CURCULIGOSIDE B]", "UNIT TAG": "%", "NUMBER": 53}
